Would you mind telling me the reported EC50 of each entry?
system_name: hGIPR (Homo sapiens, UniProt P48546)
Construct: expressed in transfected cells; host or cells: CHO cells carrying a CRE-luciferase reporter gene
Sequence (P48546 22-466): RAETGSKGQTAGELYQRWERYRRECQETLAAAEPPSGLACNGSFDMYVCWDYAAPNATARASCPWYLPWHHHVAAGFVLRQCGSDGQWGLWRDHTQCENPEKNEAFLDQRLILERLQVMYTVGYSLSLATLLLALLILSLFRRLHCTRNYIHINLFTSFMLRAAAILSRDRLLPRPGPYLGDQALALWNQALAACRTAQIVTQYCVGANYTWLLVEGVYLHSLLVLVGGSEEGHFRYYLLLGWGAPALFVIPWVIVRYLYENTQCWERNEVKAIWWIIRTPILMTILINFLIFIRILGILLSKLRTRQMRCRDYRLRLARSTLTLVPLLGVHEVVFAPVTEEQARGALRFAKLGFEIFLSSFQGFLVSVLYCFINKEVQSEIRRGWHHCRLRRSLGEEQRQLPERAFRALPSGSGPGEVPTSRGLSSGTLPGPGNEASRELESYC
test_protocol: hGIPR CreLuc reporter gene assay in 0.5% and 100% plasma
Assay type: cell-based
condition_parameters: CreLuc reporter gene assay, 100% human plasma; read-out: hGIPR 100% hP
Experimental: Example 1: hGLPR/hGIPR/hNPY2R CreLuc Assay in 0.5% and 100% Plasma CHO and HEK-293 recombinant cell lines express a luciferase reporter gene under control of the cAMP responsive element (CRE). […] Following incubation, assay plates are equilibrated to room temperature, followed by addition of 25 μl of Bright-GIo™ Luciferase reagent, incubation at room temperature for 10 minutes and analysis of luminescence (Envision Reader). […]
Starred links: 1 amine or outer side, 2 acyl side, 3 side chain; linkers in the order of their positions; H or OH if unused. Positions of bridges follow the written chain, without caps; N, C: chain ends. Non-standard residues stand in square brackets, D forms with d. Groups on a side chain read outwards from the residue. Chains are numbered I, II in the order given. No end group written: not given here. *: point of attachment. C20 diacid = O=C(O)CCCCCCCCCCCCCCCCCCC(=O)*; C18 diacid = O=C(O)CCCCCCCCCCCCCCCCC(=O)*; γGlu = O=C(O)[C@H](CCC(=O)[*:2])N[*:1]; εLys = N[C@@H](CCCCN[*:1])C(=O)[*:2]; hArg = N=C(N)NCCCC[C@H](N)C(=O)O; Tle = CC(C)(C)[C@H](N)C(=O)O; AEEA = NCCOCCOCC(=O)O; Aib = CC(C)(N)C(=O)O
Give bare numbers, in nM.

substance="H-Y[Aib]EGTFTSDYSI[Aib]LEKQAQ[Aib]EFVQWLIK([εLys-γGlu-γGlu-γGlu-γGlu-γGlu-γGlu-γGlu-C20 diacid])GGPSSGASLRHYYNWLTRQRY-NH2 [Compound 43]" system_name="hGIPR (Homo sapiens, UniProt P48546)" endpoint=EC50 unit_string=nM reported_value=1.97
substance="Y[Aib]EGTFTSDYSI[Aib]LEKQAQ[Aib]AFVEWLIK([AEEA-AEEA-γGlu-γGlu-γGlu-γGlu-γGlu-C20 diacid])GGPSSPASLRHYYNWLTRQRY-NH2 [Compound 120]" system_name="hGIPR (Homo sapiens, UniProt P48546)" endpoint=EC50 unit_string=nM reported_value=1.44
substance="H-Y[Aib]EGTFTSDYSI[Aib]LEKQAQ[Aib]AFVEWLIK([εLys-γGlu-γGlu-γGlu-γGlu-γGlu-γGlu-C20 diacid])GGPSSGASLRHYYNW[Tle]TRQRY-NH2 [Compound 137]" system_name="hGIPR (Homo sapiens, UniProt P48546)" endpoint=EC50 unit_string=nM reported_value=1.5
substance="H-Y[Aib]EGTFTSDYSI[Aib]LEKQAQ[Aib]AFVQWLIK([εLys-γGlu-γGlu-γGlu-γGlu-γGlu-C18 diacid])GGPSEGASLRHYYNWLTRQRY-NH2 [Compound 267]" system_name="hGIPR (Homo sapiens, UniProt P48546)" endpoint=EC50 unit_string=nM reported_value=1.18
substance="Y[Aib]EGTFTSDYSI[Aib]LEKQAQ[Aib]AFVQWLIK([AEEA-AEEA-γGlu-γGlu-γGlu-C18 diacid])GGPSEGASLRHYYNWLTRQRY-NH2 [Compound 266]" system_name="hGIPR (Homo sapiens, UniProt P48546)" endpoint=EC50 unit_string=nM reported_value=0.65

Batch lookup, EC50 per entry.
1. H-Y[Aib]EGTFTSDYSI[Aib]LEKQAQ[Aib]AFVQWLIK([AEEA-AEEA-γGlu-γGlu-γGlu-γGlu-C18 diacid])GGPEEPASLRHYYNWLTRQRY-NH2 [Compound 57]
2. H-Y[Aib]EGTFTSDYSI[Aib]LEKQAE[Aib]AFVQWLIK([εLys-γGlu-γGlu-γGlu-γGlu-γGlu-C18 diacid])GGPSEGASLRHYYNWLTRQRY-NH2 [Compound 138]
3. H-Y[Aib]EGTFTSDYSI[Aib]LEEEAQ[Aib]AFVQWLIK([εLys-εLys-γGlu-γGlu-γGlu-γGlu-γGlu-C20 diacid])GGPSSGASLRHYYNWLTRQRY-NH2 [Compound 7]
4. H-Y[Aib]EGTFTSDYSI[Aib]LEKQAQ[Aib]AFVEYLIK([εLys-γGlu-γGlu-γGlu-γGlu-γGlu-γGlu-C20 diacid])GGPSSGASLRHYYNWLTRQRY-NH2 [Compound 135]
5. H-Y[Aib]EGTFTSDYSI[Aib]LEKQAQ[Aib]AFVEWLIK([εLys-γGlu-γGlu-γGlu-γGlu-γGlu-γGlu-C20 diacid])GGPSSGAS[Aib]RHYYNWLT[hArg]QR[dY]-NH2 [Compound 26]
6. I: H-Y[Aib]EGTFTSDYSI[Aib]LEKQAQ[Aib]AFVQWLIKGGPESGASLRHYYNWLTRQRY-NH2 / II: {C18 diacid}-EEEEE[εLys] (amide I:28-II:C) [Compound 63]
7. H-Y[Aib]EGTFTSDYSI[Aib]LEKQAQ[Aib]AFVQWLIK([εLys-γGlu-γGlu-γGlu-γGlu-γGlu-C18 diacid])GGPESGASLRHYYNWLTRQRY-NH2 [Compound 60]
8. H-Y[Aib]EGTFTSDYSI[Aib]LEKQAQ[Aib]AFVEWLIK([γGlu-γGlu-γGlu-γGlu-γGlu-C20 diacid])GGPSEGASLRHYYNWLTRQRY-NH2 [Compound 289]

1. 1.17
2. 0.81
3. 0.63
4. 1.07
5. 0.7
6. 0.89
7. 0.35
8. 1.75

Batch lookup, EC50 per entry.
1. H-Y[Aib]EGTFTSDYSI[Aib]LEKQAQ[Aib]AFVEWLIK([εLys-γGlu-γGlu-γGlu-γGlu-γGlu-γGlu-γGlu-C20 diacid])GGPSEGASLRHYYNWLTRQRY-NH2 [Compound 288]
2. H-Y[Aib]EGTFTSDYSI[Aib]LEKQAE[Aib]AFVQWLIK([εLys-γGlu-γGlu-γGlu-γGlu-γGlu-γGlu-C18 diacid])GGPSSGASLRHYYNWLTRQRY-NH2 [Compound 51]
3. H-Y[Aib]EGTFTSDYSI[Aib]LEKQAQ[Aib]AFVEWLIK([AEEA-AEEA-γGlu-γGlu-γGlu-γGlu-C18 diacid])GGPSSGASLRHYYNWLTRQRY-NH2 [Compound 254]
4. H-Y[Aib]EGTFTSDYSI[Aib]LEKQAQ[Aib]AFVQWLIK([AEEA-AEEA-γGlu-γGlu-γGlu-γGlu-C18 diacid])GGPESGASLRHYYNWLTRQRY-NH2 [Compound 58]
5. H-Y[Aib]EGTFTSDYSI[Aib]LEKQAQ[Aib]AFVQWLIK([AEEA-AEEA-γGlu-γGlu-γGlu-γGlu-γGlu-C18 diacid])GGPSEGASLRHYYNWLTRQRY-NH2 [Compound 246]
6. H-Y[Aib]EGTFTSDYSI[Aib]LEKQAQ[Aib]AFVEWLIK([AEEA-AEEA-γGlu-γGlu-γGlu-γGlu-C18 diacid])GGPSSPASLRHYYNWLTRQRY-NH2 [Compound 158]
7. H-Y[Aib]EGTFTSDYSI[Aib]LEKQAQ[Aib]EFVEWLIK([γGlu-γGlu-γGlu-γGlu-C18 diacid])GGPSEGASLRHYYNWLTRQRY-NH2 [Compound 276]

1: 2.43; 2: 1.37; 3: 0.63; 4: 0.31; 5: 0.95; 6: 0.84; 7: 1.82
